tested on: HEL92.1.7; experiment: Solid tumour and haematological malignancy assay (CellTiterGlo); type: cell-based; details: Homo sapiens, HEL 92.1.7, 72 h, read-out: IC50 (absolute IC50)
ATTRIBUTE_MEASURED: IC50

Query: IC50; subject: Nc1ncnc2c1ncn2[C@@H]1O[C@H](COP(=O)(NCC(=O)OCc2ccccc2)Oc2ccccc2)C[C@H]1O (stereo partly shown)
0.1 to 5 µM

***
Could you share which IC50 value was measured for C[C@H](NP(=O)(OC[C@@H]1CC(O)[C@H](n2cnc3c(N)ncnc32)O1)Oc1ccccc1)C(=O)OCc1ccccc1 (stereo partly shown) ?
5 to 15 µM

Field request: IC50 | item: CCCCCCOC(=O)[C@H](C)NP(=O)(OC[C@@H]1C[C@@H](O)[C@H](n2cnc3c(N)nc(F)nc32)O1)Oc1ccccc1 (stereo partly shown)
0.1 to 5 µM

Fill in the blank: the reported IC50 of C[C@H](NP(=O)(OC[C@@H]1C[C@@H](O)[C@H](n2cnc3c(N)nc(F)nc32)O1)Oc1ccccc1)C(=O)OCc1ccccc1 (mixture of isomers) is ____.
0.1 to 5 µM

Requested read-out: IC50. Entry: COC(=O)C(C)(C)NP(=O)(OC[C@@H]1C[C@@H](O)[C@H](n2cnc3c(N)ncnc32)O1)Oc1cccc2ccccc12 (stereo partly shown)
15 to 100 µM

Suppose we examine the compound CCOC(=O)CCc1ccccc1OP(=O)(N[C@@H](C)C(=O)OCc1ccccc1)OC[C@@H]1C[C@@H](O)[C@H](n2cnc3c(N)ncnc32)O1 (stereo partly shown) ; what IC50 value has been reported?
5 to 15 µM

Given the entry C[C@H](NP(=O)(OC[C@@H]1C[C@@H](O)[C@H](n2cnc3c(N)ncnc32)O1)Oc1cccc2ccccc12)C(=O)OCc1ccccc1 (stereo partly shown) , report its measured IC50.
0.1 to 5 µM

Report IC50 for Nc1nc(F)nc2c1ncn2[C@@H]1O[C@H](CO)C[C@H]1O [2-F-Cordycepin, 3′deoxy-2-fluoroadenosine, reference compound] please.
5 to 15 µM

Record request: IC50 value, item C[C@H](NP(=O)(OC[C@@H]1C[C@H](O)[C@H](n2cnc3c(N)nc(F)nc32)O1)Oc1cccc2ccccc12)C(=O)OCc1ccccc1 (stereo partly shown)
0.1 to 5 µM

Need IC50 of CCCCCOC(=O)[C@H](CC(C)C)NP(=O)(OC[C@@H]1C[C@H](O)[C@H](n2cnc3c(N)nc(F)nc32)O1)Oc1cccc2ccccc12 (stereo partly shown) , thanks.
0.1 to 5 µM

====

test system: MCF-7; assay: CellTiterGlo viability assay, initial screening; assay type: cell-based; details: Homo sapiens, MCF7, 72 h, read-out: IC50 (relative IC50)
Examples of compounds with documented IC50 follow.

Form field: reported IC50 of C[C@H](NP(=O)(OC[C@@H]1C[C@@H](OP(=O)(N[C@@H](C)C(=O)OCc2ccccc2)Oc2ccccc2)[C@H](n2cnc3c(N)ncnc32)O1)Oc1ccccc1)C(=O)OCc1ccccc1 (stereo partly drawn)
0.1 to 5 µM

Tell me the measured IC50 of C[C@H](NP(=O)(Oc1ccccc1)O[C@@H]1C[C@@H](CO)O[C@H]1n1cnc2c(N)ncnc21)C(=O)OCc1ccccc1 (stereo partly drawn) , please.
5 to 15 µM

// query IC50 value for entry C[C@H](NP(=O)(OC[C@@H]1C[C@@H](O)[C@H](n2cnc3c(N)ncnc32)O1)Oc1cccc2ccccc12)C(=O)OCc1ccccc1 (stereo partly drawn)
0.1 to 5 µM

Which IC50 reading was recorded for the compound C[C@H](NP(=O)(OC[C@@H]1CC(O)[C@H](n2cnc3c(N)ncnc32)O1)Oc1ccccc1)C(=O)OCc1ccccc1 (stereo partly drawn) ?
0.1 to 5 µM

Next:
Tell me the measured IC50 of CCCCCOC(=O)[C@H](CC(C)C)NP(=O)(OC[C@@H]1C[C@@H](O)[C@H](n2cnc3c(N)ncnc32)O1)Oc1cccc2ccccc12 (mixture of isomers) , please.
0.1 to 5 µM

Quick check: IC50 of Nc1ncnc2c1ncn2[C@@H]1O[C@H](COP(=O)(NCC(=O)OCc2ccccc2)Oc2ccccc2)C[C@H]1O (stereo partly drawn) ?
5 to 15 µM

I'd like to know its IC50. The compound in question is C[C@H](NP(=O)(Oc1cccc2ccccc12)O[C@@H]1C[C@@H](CO)O[C@H]1n1cnc2c(N)ncnc21)C(=O)OCc1ccccc1 (stereo partly drawn)
5 to 15 µM

Quick one: IC50 of COC(=O)C(C)(C)NP(=O)(OC[C@@H]1C[C@@H](O)[C@H](n2cnc3c(N)ncnc32)O1)Oc1cccc2ccccc12 (stereo partly drawn) ?
15 to 100 µM

Which IC50 is reported for this compound? CCOC(=O)CCc1ccccc1OP(=O)(N[C@@H](C)C(=O)OCc1ccccc1)OC[C@@H]1C[C@@H](O)[C@H](n2cnc3c(N)ncnc32)O1 (stereo partly drawn)
5 to 15 µM
